# Test protocol: OD615 S. cerevisiae growth inhibition, permissive medium, pilot counter-assay, permissive growth control for S. cerevisiae lifespan shortening project (AID 705)
# Experimental context: OD615, 24 h, at 10 µM, active compounds read high
Could you please report measured growth inhibition for the items listed next?
Answers are plain numbers, in %.

Recorded growth inhibition, per entry:
{"Compound": "O=C1CC(c2ccccc2)n2nc(N3C(=O)CCC3=O)nc2N1 (configuration not stated)", "Unit text": "%", "growth inhibition": -8.97}
{"Compound": "O=C(C1=C(O)C(=O)N(c2ncccn2)C1c1cccs1)c1ccco1 (configuration not stated)", "Unit text": "%", "growth inhibition": 0.75}
{"Compound": "COc1ccc(-n2c(Cc3cc(=O)[nH]c(=O)[nH]3)nnc2SCc2ccccc2)cc1", "Unit text": "%", "growth inhibition": 6.28}
{"Compound": "CCOC(=O)N1CCc2c(sc(NC(=O)c3ccc(S(=O)(=O)N4CCCC4)cc3)c2C#N)C1", "Unit text": "%", "growth inhibition": -3.65}
{"Compound": "C=CCn1c(CCNC(=O)C(C)(C)C)nc2ccccc21", "Unit text": "%", "growth inhibition": -10.5}

Quick request: growth inhibition for each listed item, please.
1. COc1cccc(C2C(C(=O)c3ccco3)=C(O)C(=O)N2CCCN2CCOCC2)c1OC (configuration not stated)
2. COCCNC(=O)CS(=O)Cc1nc(-c2ccc(OC)cc2)oc1C (configuration not stated)
3. COc1ccc(-n2c(Cn3c(=O)sc4ccccc43)nnc2SCC(=O)N2CCCC2)cc1
4. CCC(=O)c1ccc(N2CCN(C(=O)COc3ccc(F)cc3)CC2)c(F)c1
5. CCOC(=O)N1CCN(C(=O)c2oc3ccc(S(=O)(=O)N4CCCCCC4)cc3c2C)CC1
6. COc1cc(/C=N/n2cnnc2)ccc1OC(=O)c1cccnc1

1. -8.82
2. -9.42
3. -1.82
4. -5.39
5. -9.38
6. -8.46

###

# Test protocol: inhibitors of the yeast RAM network, pilot screen, dse1pr::URA3 reporter, 5-FOA selection (AID 869);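 also: 0% = DMSO wells with no growth and 100% = 10 µM 1-NA-PP1 with full growth; RAM network block rescues cells from 5-FOA so hits raise OD615 growth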
# Experimental context: S. cerevisiae dse1pr::URA3 5-FOA growth, OD615, 2 d; at 10 µM; active compounds read high; strain carries analog-sensitive mutant Cbk1 kinase
Can you tell me inhibition for the items I'm about to list?
Answers are plain numbers, in %.

{"Molecule": "COc1ccccc1NC1=NCC(=O)N1Cc1ccccc1", "inhibition / %": 3.58}
{"Molecule": "Cn1c(=O)oc2cc(S(=O)(=O)N3CCCC(C(=O)N4CC=C(c5ccccc5)CC4)C3)ccc21 (stereo unspecified)", "inhibition / %": 1.17}

Provide inhibition values for the following items, in order.
1. Cc1ccc(C)n1-n1c(C)nc2scc(-c3cccs3)c2c1=O
2. CCNc1nc(Oc2ccc(C(=O)OCC)cc2)nc(SC)n1
3. CC(C)NS(=O)(=O)c1ccc(NC(=O)c2cccnc2)cc1
4. Cc1ccc2oc3c(c(=O)c2c1)C(c1cccc(Cl)c1)N(CCCN1CCOCC1)C3=O (stereo unspecified)
5. CCCCCCn1c(SCC(=O)c2ccccc2)nc2c1c(=O)[nH]c(=O)n2C
6. O=C(NCc1ccco1)c1ccc(Br)c(S(=O)(=O)N2CCCCC2)c1
7. CCC(C(=O)N1CC2(C)CC1CC(C)(C)C2)N1C(=O)c2ccccc2C1=O (stereo unspecified)
8. COc1ccc(NC(=O)C2CCCNC2)cc1OCC(C)C (stereo unspecified)

0.72
2.05
1.95
0.735
2.08
2.61
1.57
1.75

Can you give me inhibition for all of these, one by one?
1. Cc1ccc(S(=O)(=O)Nc2nc(C)cc(NCCN)n2)cc1
2. Oc1ccc(C=NCC2COc3ccccc3O2)cc1 (stereo unspecified)
3. CCOC(=O)COC(=O)c1ccc(O)cc1
4. Cc1cc(Nc2ccc(Br)cc2F)n2nc(C)nc2n1
5. COC(=O)C1=C(C)N(c2ccc(F)cc2)C(=O)C1
6. CCN(CC)P1(=O)OC(c2cc(OC)c(OC)c(OC)c2)=Nc2c1c(C)nn2-c1ccccc1 (stereo unspecified)
7. OCCN1CCN(Cc2cc(Br)cc(Br)c2O)CC1

1: 0.48; 2: 1.54; 3: 1.47; 4: 0.87; 5: 1.19; 6: 1.87; 7: 2.87

Please give inhibition for each item listed below.
1. COc1ccc(C2C(C(=O)NCc3ccccn3)c3cc(OC)c(OC)cc3C(=O)N2C)cc1 (stereo unspecified)
2. CC(C)OCCCNC(=O)c1ccc(NC(=O)C2CCCO2)cc1 (stereo unspecified)
3. COC(=O)c1ccccc1NC(=O)Nc1nnc(N2CCCCC2C)s1 (stereo unspecified)
4. Cc1c(C(=O)NCc2ccccn2)oc2ccc(S(=O)(=O)N3CCOCC3)cc12
5. COc1ccc(Nc2oc(COc3ccccc3F)nc2C#N)cc1
6. CC(c1ccccc1F)n1cc(C(=O)NCCc2ccco2)nn1 (stereo unspecified)
7. FC(F)(F)c1nnc2ccc(-n3ccnc3)nn12
8. CC(NC(=O)Cn1cc2c(n1)CCCCC2)c1ccccc1 (stereo unspecified)

1: -0.135; 2: 1.57; 3: 0.815; 4: 1.13; 5: 2.25; 6: 0.72; 7: 0.61; 8: -0.32
